experimental system: human GLP-1 receptor (Homo sapiens, UniProt P43220)
Sequence (P43220 24-463): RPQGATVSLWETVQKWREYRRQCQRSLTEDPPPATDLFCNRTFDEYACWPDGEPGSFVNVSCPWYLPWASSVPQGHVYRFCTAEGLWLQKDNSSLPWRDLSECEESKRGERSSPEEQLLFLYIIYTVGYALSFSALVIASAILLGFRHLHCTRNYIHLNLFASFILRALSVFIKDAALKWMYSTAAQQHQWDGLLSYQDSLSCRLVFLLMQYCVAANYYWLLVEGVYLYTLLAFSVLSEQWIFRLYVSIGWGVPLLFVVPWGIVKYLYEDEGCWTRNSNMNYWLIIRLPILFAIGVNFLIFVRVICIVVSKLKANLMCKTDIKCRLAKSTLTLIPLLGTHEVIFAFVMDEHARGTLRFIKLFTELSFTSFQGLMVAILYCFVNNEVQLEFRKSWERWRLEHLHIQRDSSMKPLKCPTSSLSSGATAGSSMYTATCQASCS
assay method text: biochemical
readout name: Emax

# compound, Emax
records = [
    ("CC(C)Nc1nc2cc(Cl)c(Cl)cc2nc1S(=O)(=O)Cc1ccc(OC(F)F)cc1 [Example 136]", "64%"),
    ("Cn1ccnc1S(=O)(=O)c1nc2cc(Cl)c(Cl)cc2nc1NC(C)(C)C [Example 138]", "72%"),
    ("CS(=O)(=O)c1nc2cc(Cl)c(Cl)cc2nc1NC1CCCc2ccccc21 (centres unmarked) [Example 108]", "54%"),
    ("CC(C)c1nc2cc(Cl)c(Cl)cc2nc1S(=O)(=O)c1cncn1C [Example 65]", "53%"),
    ("CC(C)(C)Nc1nc2cc(Cl)c(Cl)cc2nc1S(C)(=O)=O [Example 103]", "80%"),
    ("CC(C)Sc1nc2cc(Cl)c(Cl)cc2nc1S(C)(=O)=O [Example 137]", "46%"),
]

Challenge: Look up Emax with human GLP-1 receptor (Homo sapiens, UniProt P43220) for this compound: CCCc1nc2cc(Cl)c(Cl)cc2nc1S(C)(=O)=O [Example 92]
Response given: 53%

Challenge: Same read-out for CCC(C)(C)Nc1nc2cc(Cl)c(Cl)cc2nc1S(C)(=O)=O [Example 135] ?
Response given: 76%

---

// EC50 collected for human GLP-1 receptor (Homo sapiens, UniProt P43220)
Give your result in µM as a bare value.

As a guide, the following entries are already answered.
# compound, value unit, EC50
rows = [
    ("Cc1nnc(S(=O)(=O)c2nc3cc(Cl)c(Cl)cc3nc2C(C)C)s1", "µM", 0.078),
    ("Cc1nnc([S+]([O-])c2nc3cc(Cl)c(Cl)cc3nc2C(C)C)s1 (centres unmarked)", "µM", 0.17),
    ("COc1nc2ccc(Cl)cc2nc1Cl", "µM", 10),
    ("CC(C)S(=O)(=O)c1nc2cc(Cl)c(Cl)cc2nc1C(F)(F)F", "µM", 0.068),
    ("Cc1nnc(Sc2nc3cc(Cl)c(Cl)cc3nc2C(F)(F)F)s1", "µM", 0.31),
]

Challenge: Dear colleague, I am looking for the recorded EC50 of the following compound: CS(=O)(=O)c1nc2cc(Cl)c(Cl)cc2nc1C(F)(F)F
Response given: 0.16

Challenge: Now give it for Cc1nc2cc(Cl)c(Cl)cc2nc1S(C)(=O)=O too.
Response given: 0.078

---

experimental system: human GLP-1 receptor (Homo sapiens)
Each entry below carries its recorded Emax.
The answer is to be given in %; state only the numeric part.

Challenge: Entry COc1nc2ccc(Cl)cc2nc1Cl [Example 47, 2,7-Dichloro-3-methoxyquinoxaline] has what Emax?
Response given: 50

Challenge: Then this molecule: Cc1nnc([S+]([O-])c2nc3cc(Cl)c(Cl)cc3nc2C(C)C)s1 (stereo not shown) [Example 6]
Response given: 94

Challenge: And the next one, Cc1nnc(Sc2nc3cc(Cl)c(Cl)cc3nc2C(F)(F)F)s1 [Example 2] ?
Response given: 100

Challenge: Now try O=Cc1cc2cc(Cl)ccc2nc1Cl [Example 25, 2,6-Dichloroquinoline-3-carbaldehyde] .
Response given: 15

Challenge: Okay, and Cc1nnc(S(=O)(=O)c2nc3cc(Cl)c(Cl)cc3nc2C(C)C)s1 [Example 7] ?
Response given: 120
